Recorded DC50 values for a group of molecules are listed next.
Molecular target: Human BCL-XL protein (N-terminal HiBiT tagged BCL-XL in HT1080 cells) (Homo sapiens)
Construct: expressed in transfected cells; host or cells: HT-1080 (ATCC CCL-121), stably transduced with lentivirus pLV-UBC-N-HiBiT-BCL-XL-PGK-puro and selected with puromycin
Experiment: HiBiT based degradation assay
Type: cell-based
Details: BCL-XL degradation; HT1080 cells expressing HiBiT-BCL-XL; 6 h; read-out: EC50 (6 h)
Procedure: Human BCL-XL protein coding open reading frame fused with N-terminal HiBiT coding sequence was synthesized from Integrated DNA Technologies (IDT). […] HT1080 cells expressing N-terminal HiBiT tagged BCL-XL were dispensed into a 384-well plate pre-spotted with compounds at varying concentrations. […] After incubation, luminescence was read on a PHERAstar FSX Plate Reader (BMG). […]

Below, 10 molecules whose answers are already recorded.
>  <molecule>
Cc1c(O[C@@H](C)CCC2CCN(CC(=O)Nc3ccc4c(C5CCC(=O)NC5=O)nn(C)c4c3)CC2)cccc1-c1ccc(N2CCc3cccc(C(=O)Nc4nc5ccccc5s4)c3C2)nc1C(=O)O (stereo partly shown) [Compound 162a]

>  <experimental.target>
Human BCL-XL protein (N-terminal HiBiT tagged BCL-XL in HT1080 cells) (Homo sapiens)

>  <measurement.kind>
DC50

>  <reported.result>
< 100 nM

$$$$
>  <molecule>
Cc1cc(OCCCN2CCN(CC(=O)N3CCN(c4cccc5c(C6CCC(=O)NC6=O)nn(C)c45)CC3)CC2)ccc1-c1ccc(N2CCc3cccc(C(=O)Nc4nc5ccccc5s4)c3C2)nc1C(=O)O (stereo not shown)

>  <experimental.target>
Human BCL-XL protein (N-terminal HiBiT tagged BCL-XL in HT1080 cells) (Homo sapiens)

>  <measurement.kind>
DC50

>  <reported.result>
< 100 nM

$$$$
>  <molecule>
Cc1c(Oc2ccc(CCC(=O)Nc3ccc4c(C5CCC(=O)NC5=O)nn(C)c4c3)cc2)cccc1-c1ccc(N2CCc3cccc(C(=O)Nc4nc5ccccc5s4)c3C2)nc1C(=O)O (stereo not shown)

>  <experimental.target>
Human BCL-XL protein (N-terminal HiBiT tagged BCL-XL in HT1080 cells) (Homo sapiens)

>  <measurement.kind>
DC50

>  <reported.result>
1000 to 10000 nM

$$$$
>  <molecule>
Cc1c(-c2ccc(N3CCc4cccc(C(=O)Nc5nc6ccccc6s5)c4C3)nc2C(=O)NCC(=O)Nc2ccc3c(C4CCC(=O)NC4=O)nn(C)c3c2)cnn1Cc1ccccc1 (stereo not shown)

>  <experimental.target>
Human BCL-XL protein (N-terminal HiBiT tagged BCL-XL in HT1080 cells) (Homo sapiens)

>  <measurement.kind>
DC50

>  <reported.result>
< 100 nM

$$$$
>  <molecule>
Cc1c(OCCCC2CCN(CC(=O)Nc3cccc4c(C5CCC(=O)NC5=O)nn(C)c34)CC2)cccc1-c1ccc(N2CCc3cccc(C(=O)Nc4nc5ccccc5s4)c3C2)nc1C(=O)O (stereo not shown)

>  <experimental.target>
Human BCL-XL protein (N-terminal HiBiT tagged BCL-XL in HT1080 cells) (Homo sapiens)

>  <measurement.kind>
DC50

>  <reported.result>
< 100 nM

$$$$
>  <molecule>
Cc1c(OCCCC2CCN(CC(=O)Nc3ccc4c(C5CCC(=O)NC5=O)nn(C)c4c3)CC2)cccc1-c1ccc(N2CCc3cccc(C(=O)Nc4nc5ccccc5s4)c3C2)nc1C(=O)O (stereo not shown)

>  <experimental.target>
Human BCL-XL protein (N-terminal HiBiT tagged BCL-XL in HT1080 cells) (Homo sapiens)

>  <measurement.kind>
DC50

>  <reported.result>
< 100 nM

$$$$
>  <molecule>
Cc1c(OCCCCC2CCN(CC(=O)Nc3cccc4c(C5CCC(=O)NC5=O)nn(C)c34)CC2)cccc1-c1ccc(N2CCc3cccc(C(=O)Nc4nc5ccccc5s4)c3C2)nc1C(=O)O (stereo not shown)

>  <experimental.target>
Human BCL-XL protein (N-terminal HiBiT tagged BCL-XL in HT1080 cells) (Homo sapiens)

>  <measurement.kind>
DC50

>  <reported.result>
1000 to 10000 nM

$$$$
>  <molecule>
Cc1c(OCCCCCCCCCN2CCN(c3ccc4c(C5CCC(=O)NC5=O)nn(C)c4c3)CC2)cccc1-c1ccc(N2CCc3cccc(C(=O)Nc4nc5ccccc5s4)c3C2)nc1C(=O)O (stereo not shown)

>  <experimental.target>
Human BCL-XL protein (N-terminal HiBiT tagged BCL-XL in HT1080 cells) (Homo sapiens)

>  <measurement.kind>
DC50

>  <reported.result>
< 100 nM

$$$$
>  <molecule>
Cc1c(-c2ccc(N3CCc4cccc(C(=O)Nc5nc6ccccc6s5)c4C3)nc2C(=O)NCCCCCCCC(=O)Nc2cccc3c(C4CCC(=O)NC4=O)nn(C)c23)cnn1CC12CC3CC(CC(C3)C1)C2 (stereo not shown)

>  <experimental.target>
Human BCL-XL protein (N-terminal HiBiT tagged BCL-XL in HT1080 cells) (Homo sapiens)

>  <measurement.kind>
DC50

>  <reported.result>
< 100 nM

$$$$
>  <molecule>
Cc1c(OCCCN2CCN(CC(=O)N3CCN(c4cccc5c(C6CCC(=O)NC6=O)nn(C)c45)CC3)CC2)cccc1-c1ccc(N2CCc3cccc(C(=O)Nc4nc5ccccc5s4)c3C2)nc1C(=O)O (stereo not shown)

>  <experimental.target>
Human BCL-XL protein (N-terminal HiBiT tagged BCL-XL in HT1080 cells) (Homo sapiens)

>  <measurement.kind>
DC50

>  <reported.result>
100 to 1000 nM

$$$$

Here Cc1cc(OCCCN2CCN(CC(=O)Nc3ccc4c(C5CCC(=O)NC5=O)nn(C)c4c3)CC2)ccc1-c1ccc(N2CCc3cccc(C(=O)Nc4nc5ccccc5s4)c3C2)nc1C(=O)O (stereo not shown) was tested on Human BCL-XL protein (N-terminal HiBiT tagged BCL-XL in HT1080 cells) (Homo sapiens), and its DC50 came to < 100 nM

Here Cc1c(Oc2ccccc2CCC(=O)Nc2ccc(C3CCC(=O)NC3=O)cc2)cccc1-c1ccc(N2CCc3cccc(C(=O)Nc4nc5ccccc5s4)c3C2)nc1C(=O)O (stereo not shown) was tested on Human BCL-XL protein (N-terminal HiBiT tagged BCL-XL in HT1080 cells) (Homo sapiens), and its DC50 came to 100 to 1000 nM

Here Cc1c(OCCCCC2CCN(CC(=O)Nc3ccc4c(C5CCC(=O)NC5=O)nn(C)c4c3)CC2)cccc1-c1ccc(N2CCc3cccc(C(=O)Nc4nc5ccccc5s4)c3C2)nc1C(=O)O (stereo not shown) was tested on Human BCL-XL protein (N-terminal HiBiT tagged BCL-XL in HT1080 cells) (Homo sapiens), and its DC50 came to < 100 nM

Here Cc1cc(OCCCC2CCN(CC(=O)Nc3ccc4c(C5CCC(=O)NC5=O)nn(C)c4c3)CC2)ccc1-c1ccc(N2CCc3cccc(C(=O)Nc4nc5ccccc5s4)c3C2)nc1C(=O)O (stereo not shown) was tested on Human BCL-XL protein (N-terminal HiBiT tagged BCL-XL in HT1080 cells) (Homo sapiens), and its DC50 came to < 100 nM

Here Cc1c(OCCCN2C[C@@H](C)N(CC(=O)Nc3ccc4c(C5CCC(=O)NC5=O)nn(C)c4c3)[C@@H](C)C2)cccc1-c1ccc(N2CCc3cccc(C(=O)Nc4nc5ccccc5s4)c3C2)nc1C(=O)O (stereo partly shown) [Compound 116a] was tested on Human BCL-XL protein (N-terminal HiBiT tagged BCL-XL in HT1080 cells) (Homo sapiens), and its DC50 came to < 100 nM

Here Cn1nc(C2CCC(=O)NC2=O)c2ccc(NC(=O)CN3CCN(CCOc4cccc(-c5ccc(N6CCc7cccc(C(=O)Nc8nc9ccccc9s8)c7C6)nc5C(=O)O)c4C(F)(F)F)CC3)cc21 (stereo not shown) was tested on Human BCL-XL protein (N-terminal HiBiT tagged BCL-XL in HT1080 cells) (Homo sapiens), and its DC50 came to 100 to 1000 nM

====

Recorded DC50 values for a group of molecules are listed next.
Target: Human BCL-XL protein (N-terminal HiBiT tagged BCL-XL in HT1080 cells) (Homo sapiens, UniProt Q07817)
Construct: expressed in transfected cells; host or cells: HT-1080 (ATCC CCL-121), stably transduced with lentivirus pLV-UBC-N-HiBiT-BCL-XL-PGK-puro and selected with puromycin
Sequence (Q07817 whole entry): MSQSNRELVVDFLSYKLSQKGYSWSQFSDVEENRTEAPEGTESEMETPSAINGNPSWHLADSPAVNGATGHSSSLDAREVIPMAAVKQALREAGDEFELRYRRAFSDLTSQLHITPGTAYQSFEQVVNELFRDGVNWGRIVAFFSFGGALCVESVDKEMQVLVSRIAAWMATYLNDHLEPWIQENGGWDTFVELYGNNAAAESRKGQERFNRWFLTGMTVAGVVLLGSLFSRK
Test: HiBiT based degradation assay
Assay type: cell-based
Conditions: BCL-XL degradation; HT1080 cells expressing HiBiT-BCL-XL; 24 h; read-out: EC50 (24 h)
Procedure: Human BCL-XL protein coding open reading frame fused with N-terminal HiBiT coding sequence was synthesized from Integrated DNA Technologies (IDT). […] HT1080 cells expressing N-terminal HiBiT tagged BCL-XL were dispensed into a 384-well plate pre-spotted with compounds at varying concentrations. […] After incubation, luminescence was read on a PHERAstar FSX Plate Reader (BMG). […]

Below, 4 molecules whose answers are already recorded.
>  <molecule>
Cc1c(OCCC[C@H]2CCN(CC(=O)Nc3ccc4c(C5CCC(=O)NC5=O)nn(C)c4c3)[C@@H](C)C2)cccc1-c1ccc(N2CCc3cccc(C(=O)Nc4nc5ccccc5s4)c3C2)nc1C(=O)O (some centres unmarked) [Compound 343d]

>  <reported.result>
< 0.1 µM

$$$$
>  <molecule>
Cc1cc(OCCCN2CCN(CC(=O)N3CCN(c4cccc5c(C6CCC(=O)NC6=O)nn(C)c45)CC3)CC2)ccc1-c1ccc(N2CCc3cccc(C(=O)Nc4nc5ccccc5s4)c3C2)nc1C(=O)O (centres unmarked)

>  <reported.result>
< 0.1 µM

$$$$
>  <molecule>
Cc1c(O[C@H]2CC[C@@H](CCCC3CCN(c4ccc5c(C6CCC(=O)NC6=O)nn(C)c5c4)CC3)CC2)cccc1-c1ccc(N2CCc3cccc(C(=O)Nc4nc5ccccc5s4)c3C2)nc1C(=O)O (some centres unmarked) [Compound 311a]

>  <reported.result>
< 0.1 µM

$$$$
>  <molecule>
Cc1c(O[C@H]2CC[C@H](CCC(=O)N3CCC(c4cccc5c(C6CCC(=O)NC6=O)nn(C)c45)CC3)CC2)cccc1-c1ccc(N2CCc3cccc(C(=O)Nc4nc5ccccc5s4)c3C2)nc1C(=O)O (some centres unmarked) [Compound 253a]

>  <reported.result>
0.1 to 1 µM

$$$$

Sample Cc1c(OCCC2CCN(CCN3CCN(c4cccc5c(C6CCC(=O)NC6=O)nn(C)c45)CC3)CC2)cccc1-c1ccc(N2CCc3cccc(C(=O)Nc4nc5ccccc5s4)c3C2)nc1C(=O)O (centres unmarked) ; DC50 observed: < 0.1 µM

Recorded values, source patent US20240238423A9.
